Assay: Volume distribution in dogs after an intravenous dose of 0.2 mg/Kg
Type: ADME, organism-based
Settings: dog, in vivo
Observed property: Vd

1. C[C@H](CNc1ccc(CCS(=O)(=O)NC(=O)c2ccccc2)cc1)NC[C@H](O)c1cccc(Cl)c1 | 0.478 L/kg
2. Cc1ccc(S(=O)(=O)NC(=O)Cc2cccc(NC[C@@H](C)NC[C@H](O)c3cccc(Cl)c3)c2)cc1 | 0.409 L/kg
3. Cc1ccc(S(=O)(=O)NC(=O)Cc2ccc(NC[C@@H](C)NC[C@H](O)c3cccc(Cl)c3)cc2)cc1 | 0.2 L/kg

----------
Catalogue of half-life values
Assay: Half life (t1/2) value in dogs after an intravenous dose of 0.2 mg/Kg
Assay type: ADME, organism-based, Canis lupus familiaris
Conditions: dog, in vivo
Observed property: half-life

1. Cc1ccc(S(=O)(=O)NC(=O)Cc2ccc(NC[C@@H](C)NC[C@H](O)c3cccc(Cl)c3)cc2)cc1 | 1 h
2. Cc1ccc(S(=O)(=O)NC(=O)Cc2cccc(NC[C@@H](C)NC[C@H](O)c3cccc(Cl)c3)c2)cc1 | 1.7 h
3. C[C@H](CNc1ccc(CCS(=O)(=O)NC(=O)c2ccccc2)cc1)NC[C@H](O)c1cccc(Cl)c1 | 1.2 h
4. C[C@H](CNc1cccc(CCS(=O)(=O)NS(=O)(=O)c2ccccc2)c1)NC[C@H](O)c1cccc(Cl)c1 | < 1 h
5. C[C@H](CNc1cccc(CNC(=O)NS(=O)(=O)c2ccccc2)c1)NC[C@H](O)c1cccc(Cl)c1 | < 1 h

----------
System: Canis familiaris
Test: Plasma clearance in dogs after an intravenous dose of 0.2 mg/Kg
Format: ADME, organism-based, Canis lupus familiaris
Details: dog, in vivo
Catalogue of Clp values
Observed property: Clp (mL/min/kg)

1. Cc1ccc(S(=O)(=O)NC(=O)Cc2ccc(NC[C@@H](C)NC[C@H](O)c3cccc(Cl)c3)cc2)cc1 | 4.7
2. C[C@H](CNc1ccc(CCS(=O)(=O)NC(=O)c2ccccc2)cc1)NC[C@H](O)c1cccc(Cl)c1 | 8.7
3. Cc1ccc(S(=O)(=O)NC(=O)Cc2cccc(NC[C@@H](C)NC[C@H](O)c3cccc(Cl)c3)c2)cc1 | 11.9

----------
Catalogue of Emax values
Target: Beta-3 adrenergic receptor (Homo sapiens, UniProt P13945)
Sequence (P13945 whole entry, looked up): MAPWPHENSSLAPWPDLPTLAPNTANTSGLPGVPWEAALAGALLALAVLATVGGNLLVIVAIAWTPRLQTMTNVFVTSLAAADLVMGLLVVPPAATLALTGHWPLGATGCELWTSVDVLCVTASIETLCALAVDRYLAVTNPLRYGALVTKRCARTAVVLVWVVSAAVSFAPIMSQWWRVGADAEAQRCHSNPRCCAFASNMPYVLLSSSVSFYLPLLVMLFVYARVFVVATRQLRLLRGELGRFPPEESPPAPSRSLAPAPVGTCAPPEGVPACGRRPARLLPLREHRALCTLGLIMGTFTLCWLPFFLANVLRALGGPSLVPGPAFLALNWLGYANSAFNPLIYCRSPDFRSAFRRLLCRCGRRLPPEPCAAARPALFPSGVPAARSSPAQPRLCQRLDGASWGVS
Assay: concentration-response expressed as a percent of the maximal response to R-(-) isoproterenol (ISO).Emax is the fitted maximal value of the concentration
Format: functional
Observed property: Emax (%)

1) C[C@H](CNc1ccc(CC(=O)NS(=O)(=O)c2ccccc2)cc1)NC[C@H](O)c1cccc(Cl)c1 | 110
2) Cc1ccc(CNC(=O)Cc2ccc(NC[C@@H](C)NC[C@H](O)c3cccc(Cl)c3)cc2)cc1 | 126
3) C[C@H](CNc1ccccc1)NC[C@H](O)c1cccc(Cl)c1 | 105
4) C[C@H](CNc1cccc(CC(=O)O)c1)NC[C@H](O)c1cccc(Cl)c1 | 117
5) C[C@H](CNc1cccc(CNC(=O)NS(=O)(=O)c2ccccc2)c1)NC[C@H](O)c1cccc(Cl)c1 | 105
6) Cc1ccc(S(=O)(=O)NC(=O)Cc2cccc(NC[C@@H](C)NC[C@H](O)c3cccc(Cl)c3)c2)cc1 | 98
7) C[C@H](CNc1ccc(CNS(C)(=O)=O)cc1)NC[C@H](O)c1cccc(Cl)c1 | 102
8) Cc1ccc(S(=O)(=O)NC(=O)Cc2ccc(NC[C@@H](C)NC[C@H](O)c3cccc(Cl)c3)cc2)cc1 | 98
9) C[C@H](CNc1ccc(CCC(=O)O)cc1)NC[C@H](O)c1cccc(Cl)c1 | 104
10) CC(=O)NCc1ccc(NC[C@@H](C)NC[C@H](O)c2cccc(Cl)c2)cc1 | 123
11) C[C@H](CNc1ccc(CC(=O)Nc2nccs2)cc1)NC[C@H](O)c1cccc(Cl)c1 | 101
12) C[C@H](CNc1ccc(C(=O)O)cc1)NC[C@H](O)c1cccc(Cl)c1 | 79
13) C[C@H](CNc1ccc(CC(=O)NS(C)(=O)=O)cc1)NC[C@H](O)c1cccc(Cl)c1 | 96
14) C[C@H](CNc1ccc(CCS(=O)(=O)NC(=O)c2ccccc2)cc1)NC[C@H](O)c1cccc(Cl)c1 | 100
15) Cc1ccc(S(=O)(=O)NCCc2ccc(NC[C@@H](C)NC[C@H](O)c3cccc(Cl)c3)cc2)cc1 | 98
